Measured values drawn from patent US6531475B1 for this set.

Target: human CRF receptors (Homo sapiens, UniProt P34998)
Construct: expressed in transfected cells; stably transfected cells, used as membrane suspension
Sequence (P34998 24-415): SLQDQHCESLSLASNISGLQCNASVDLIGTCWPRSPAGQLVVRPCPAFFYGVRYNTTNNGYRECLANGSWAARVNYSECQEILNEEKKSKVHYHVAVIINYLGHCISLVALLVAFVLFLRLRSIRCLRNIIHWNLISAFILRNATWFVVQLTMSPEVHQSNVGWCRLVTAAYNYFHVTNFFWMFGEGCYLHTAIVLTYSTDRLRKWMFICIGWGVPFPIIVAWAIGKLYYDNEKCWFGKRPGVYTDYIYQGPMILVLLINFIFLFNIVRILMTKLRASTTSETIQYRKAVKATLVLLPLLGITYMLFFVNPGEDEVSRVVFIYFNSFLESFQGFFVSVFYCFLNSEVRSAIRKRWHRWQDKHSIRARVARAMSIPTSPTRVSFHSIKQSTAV
Assay: CRF receptor radioligand binding assay (displacement of [125I]tyrosine-ovine CRF)
Conditions: preferred compounds; cells stably transfected with human CRF receptors; read-out: Ki (CRF receptor binding affinity)
pKi: −log10 of the molar value.
Entries annotated with measured pKi
Experimental endpoint: pKi

                                   compound                             target_entity  experimental_value
0  Cc1cc2c3c(n1)c(-c1ccc(Cl)cc1Cl)nn3CCN2C(C)CCCC(C)C (stereo not drawn)  human CRF receptors (Homo sapiens, UniProt P34998)              > 6.00
1  Cc1cc2c3c(n1)c(-c1ccc(Cl)cc1Cl)nn3CCN2C1CCCc2ccccc21 (stereo not drawn)  human CRF receptors (Homo sapiens, UniProt P34998)              > 6.00
2  COc1cc(C(F)(F)F)ccc1-c1nn2c3c(cc(C)nc13)N(CCC(C)C)[C@@H](C)C2  human CRF receptors (Homo sapiens, UniProt P34998)              > 6.00
3  CC[C@H]1Cn2nc(-c3ccc(C(C)C)cc3C(F)(F)F)c3nc(C)cc(c32)N1CC(C)C  human CRF receptors (Homo sapiens, UniProt P34998)              > 6.00
4  C=C1CN(C(CCC)CCC)c2nc(C)nc3c2c1cn3-c1ccc(Cl)cc1Cl  human CRF receptors (Homo sapiens, UniProt P34998)              > 6.00
5  CCCC(CCC)N1CC(C)c2cn(-c3ccc(Cl)cc3Cl)c3nc(C)nc1c23 (stereo not drawn)  human CRF receptors (Homo sapiens, UniProt P34998)              > 6.00

###

Molecular target: human CRF receptors (Homo sapiens)
Construct: expressed in transfected cells; stably transfected cells, used as membrane suspension
Experiment: CRF receptor radioligand binding assay (displacement of [125I]tyrosine-ovine CRF)
Conditions: more preferred compounds; cells stably transfected with human CRF receptors; read-out: Ki (CRF receptor binding affinity)
pKi: −log10 of the molar value.
Entries annotated with measured pKi
Experimental endpoint: pKi

In [3]: df
Out[3]:
                                   compound  experimental_value
0  Cc1cc2c3c(n1)c(-c1ccc(Cl)cc1Cl)nn3CCN2C1CCCc2ccccc21 (stereo not drawn)              > 6.60
1  CC[C@H]1Cn2nc(-c3ccc(C(F)(F)F)cc3OC)c3nc(C)cc(c32)N1Cc1ccc(F)cc1              > 6.60
2  Cc1cc2c3c(n1)c(-c1ccc(Cl)cc1Cl)nn3CCN2C(C)CCCC(C)C (stereo not drawn)              > 6.60
3  Cc1cc2c3c(n1)c(-c1ccc(Cl)cc1Cl)nn3CCN2C1CCCCC1C (stereo not drawn)              > 6.60
4  C=C1CN(C(CCC)CCC)c2nc(C)nc3c2c1cn3-c1ccc(Cl)cc1Cl              > 6.60
5  CCCC(CCC)N1CC(C)c2cn(-c3ccc(Cl)cc3Cl)c3nc(C)nc1c23 (stereo not drawn)              > 6.60
